Data credit: ChEMBL document CHEMBL1141685

Experiment Description: Metabolic stability in cynomolgus monkey liver microsomes at 1 uM
Stated Conditions: liver microsomes
Measurement Label: half-life at 1 µM (min)
Write the number in min without appending the unit.

// solved cases for half-life at 1 µM follow
In [3]: df
Out[3]:
                                   compound  measurement_label  unit_abbrev  recorded_measurement
0  CC(C)(C)CCN1C(=O)C(C2=NS(=O)(=O)c3cc(NS(C)(=O)=O)ccc3N2)=C(O)C2(C)CCCN12 (stereo not given)  half-life at 1 µM          min                    10
1  CN(c1ccc2c(c1)S(=O)(=O)N=C(C1=C(O)C3CCCN3N(CCC(C)(C)C)C1=O)N2)S(C)(=O)=O (stereo not given)  half-life at 1 µM          min                    17

--- query ---
Q: Given the entry CC(C)(C)CCN1C(=O)C(C2=NS(=O)(=O)c3cc(NS(C)(=O)=O)ccc3N2)=C(O)C2CCCCN21 (stereo not given) , report its measured half-life at 1 µM.
A: 18

* * *

Experiment Description: Oral bioavailability in cynomolgus monkey at 1 mg/kg
Format: ADME, organism-based, Macaca fascicularis
Stated Conditions: in vivo
Measurement Label: bioavailability
Quick note: number first, unit second.

Q: Request the reported bioavailability associated with CC(C)(C)CCN1C(=O)C(C2=NS(=O)(=O)c3cc(NS(C)(=O)=O)ccc3N2)=C(O)C2CCCN21 (stereo unspecified)
A: 7%

* * *

Test system: Hepatitis C virus
Experiment Description: Inhibition of HCV 1b NS5B polymerase by microbeta scintillation counter
Set-up: species or system Hepatitis C virus subtype 1b
Measurement Label: log10 of IC50 (log10 of the value in nM)
Base-10 log of IC50, unit nM.

Examples from the recorded data:
In [3]: df
Out[3]:
                                   compound       assay_target  recorded_measurement
0  CC(C)(C)CCN1C(=O)C(C2=NS(=O)(=O)c3cc(NS(C)(=O)=O)ccc3N2)=C(O)C2(C)CCCN12 (stereo not drawn)  Hepatitis C virus                  2.26
1  CN(c1ccc2c(c1)S(=O)(=O)N=C(C1=C(O)C3CCCN3N(CCC(C)(C)C)C1=O)N2)S(C)(=O)=O (stereo not drawn)  Hepatitis C virus                  2.20
2  CS(=O)(=O)Nc1ccc2c(c1)S(=O)(=O)N=C(C1=C(O)C3CCCCN3N(Cc3ccc(F)cc3)C1=O)N2 (stereo not drawn)  Hepatitis C virus                  1.20
3  CC(C)(C)CCN1C(=O)C(C2=NS(=O)(=O)c3cc(NS(C)(=O)=O)ccc3N2)=C(O)C2CCCCN21 (stereo not drawn)  Hepatitis C virus                  1.61

The record that follows has no log10 of IC50 shown yet.
Q: Name the recorded log10 of IC50 for CC(C)CCN1C(=O)C(C2=NS(=O)(=O)c3cc(NS(C)(=O)=O)ccc3N2)=C(O)C2CCCN21 (stereo not drawn) .
A: 1.08

* * *

Listed below: IC50 values for each entry.
Test system: Hepatitis C virus
Experiment Description: Inhibition of HCV 1b NS5B polymerase by microbeta scintillation counter
Design: species or system Hepatitis C virus subtype 1b

>>> print(df.to_string())
                                   compound  recorded_measurement
0  CS(=O)(=O)Nc1ccc2c(c1)S(=O)(=O)N=C(C1=C(O)C3CCCN3N(Cc3ccc(F)cc3)C1=O)N2 (stereo not drawn)               < 10 nM
1  CS(=O)(=O)Nc1ccc2c(c1)S(=O)(=O)N=C(c1c(O)c3cccn3n(Cc3ccc(F)cc3)c1=O)N2               < 10 nM

Please look at the following compound next.
Q: I'd like to know its IC50. The compound in question is CC(C)(C)CCN1C(=O)C(C2=NS(=O)(=O)c3cc(NS(C)(=O)=O)ccc3N2)=C(O)C2CCCN21 (stereo not drawn)
A: < 10 nM
